# SYSTEM_TESTED: T1, monkey PD-L1 (Cat. #90251-C08H, Sino Biological) (monkey (cyno), UniProt G7PSE7 19-239)
# T1 construct: Bought recombinant protein used in the Biacore test; also called Monkey (cyno) PD-L1; Cyno PDL1
# ASSAY_REMARKS: SPR, Biacore X100, 1:1 Langmuir
Kindly state koff for each of the entries shown.
Answers are plain numbers, in s⁻¹.

// worked examples, koff included
BINDER	QUANTITY_MEASURED	READOUT_VALUE
H6L11 (antibody, human IgG1, kappa, V domains shown, also called 9-2 H6 and 9-2 L11) VH: QVQLQESGPGLVKPSQTLSLTCTVSGGSISNDYWTWIRQHPGKGLEYIGFISRAGSTYNTPSLKGRVTISRDTSKNQFSLKLSSVTAADTAVYYCARSGGWLAPFDYWGRGTLVTVSS VL: DIVMTQSPDSLAVSLGERATINCKSSQSLFYHSNQKHSLAWYQQKPGQPPKLLIYGASTRESGVPDRFSGSGSGTDFTLTISSLQAEDVAVYYCQQYYGYPYTFGGGTKVEIKR	koff	0.000151
H18L61 (antibody, human IgG1, kappa, V domains shown, also called 24D5 H18 and 24D5 L61) VH: QVQLVQSGAEVKKPGASVKVSCKASGYTFTSYWMHWVRQAPGQGLEWMGRISPSSGMAVYNEKFKNRVTMTRDTSTSTVYMELSSLRSEDTAVYYCARGGSSYDYFDYWGQGTTVTVSS VL: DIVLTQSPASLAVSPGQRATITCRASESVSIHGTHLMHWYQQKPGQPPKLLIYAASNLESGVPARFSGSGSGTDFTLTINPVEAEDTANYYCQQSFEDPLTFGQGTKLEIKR	koff	7.68e-05

Query: Consider the binder shown here: H5L11 (antibody, human IgG1, kappa, V domains shown, from the HRP00049 mutant library; also called 9-2 H5 and 9-2 L11) VH: QVQLQESGPGLVKPSQTLSLTCTVSGGSISDGSAYWSWIRQHPGKGLEYIGFISRAGSTYNTPSLKGRVTISRDTSKNQFSLKLSSVTAADTAVYYCARSGGWLAPFDYWGRGTLVTVSS VL: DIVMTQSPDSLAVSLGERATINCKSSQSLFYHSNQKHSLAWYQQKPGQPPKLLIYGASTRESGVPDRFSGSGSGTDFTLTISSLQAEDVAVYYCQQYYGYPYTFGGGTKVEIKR What is its recorded koff?
Reply: 0.000121
